# assay-notes: in vitro
# assay-setup: hamster, Cell viability (%), BHK-21-hACE2 cells
readout-name: viability at 20 µM (%)
# output: bare number, implied unit %

Challenge: Hello, please tell me recorded viability at 20 µM for this one: CCN(CC)Cc1cc(Nc2ccnc3cc(Cl)ccc23)ccc1O
Response given: 107
